# credit: paper PMC9853869

assay: in vivo; conditions: BALB/c, mouse, ip, 10 mg/kg
*1 amine or outer side, *2 acyl side, *3 side chain or, on linkers, in order; H or OH if unused. Where a SMILES comes first, the peptide text is derived from it. [ ]: non-standard residue; d: D form. The star is where a group is joined. X1 = O=C(C[C@H](N[*:1])c1ccc(O)cc1)[*:2]; dVal(3-OH) = CC(C)(O)[C@@H](N)C(=O)O; ΔIle(E) = CC/C(C)=C(/N)C(=O)O; Isovaleryl = CC(C)CC(=O)*; Agmatine = N=C(N)NCCCCN*; NMeA = CN[C@@H](C)C(=O)O; ΔVal = CC(C)=C(N)C(=O)O
measure-name: level at 2 h (ng/mL)

{"columns": ["compound", "measure-name", "experimental-value"],
 "data": [
  ["CC/C(C)=C(/NC(=O)[C@H](NC(=O)[C@@H](NC(=O)[C@@H](CCCNC(=N)N)NC(=O)C(NC(=O)[C@H](NC(=O)C[C@H](NC(=O)[C@H](NC(=O)[C@H](NC(=O)[C@H](C)N(C)C(=O)[C@H](C)NC(=O)C(NC(=O)CC(C)C)=C(C)C)C(C)C)C(C)C)c1ccc(O)cc1)C(C)C)=C(C)C)C(C)C)C(C)C)C(=O)N[C@H](C)C(=O)N[C@@H](C(=O)NCCCCNC(=N)N)C(C)(C)O [MyxA, Myxovalargin A] (Isovaleryl-[ΔVal]A[NMeA][dV][dV][X1][dV][ΔVal][dR]V[dV][ΔIle(E)][dA][dVal(3-OH)]-Agmatine)", "level at 2 h", 1550]
]}
